Tested on: HCT-15 colon
PROCEDURE DETAILS: NCI tumour cell line growth inhibition, 48 h; in the data active = GI50 below about 0.43 µM; inactive = the rest
Possible outcomes: active, inactive

- Cc1c(C2=C(c3cn(C)c4ccccc34)C(=O)NC2=O)c2ccccc2n1C: inactive
- CCCCn1c(=O)c2c(nc3n2CCCN3CCc2ccc(OCC(=O)NCCN(CC)CC)cc2)n(CCCC)c1=O: inactive
- O=C1NC(=O)C(c2cccc(Cl)c2)=C1Nc1ccc(O)c(Cl)c1: inactive
- CCN1C(=O)N(CC)C2C1NN=c1s/c(=C3\C(=O)N(CCc4ccccc4)c4ccccc43)c(=O)n12 (configuration not stated): active
- COc1cc2c(c(OC)c1OC)-c1ccc(SC)c(=O)cc1[C@@H](NC1OC(CO)C(O)C(O)C1O)CC2 (some centres not stated): active
- CC1(C)N=C(N)N=C(N)N1c1ccc(CCCCc2ccc(S(=O)(=O)F)cc2)c(Cl)c1: inactive
- CC1OC(O[C@H]2/C=C/C=C/C=C/C=C/C=C/C=C/C=C/[C@H](C)[C@@H](O)[C@@H](C)[C@H](C)OC(=O)CC(O)CC(O)CCC(O)C(O)CC(O)C[C@]3(O)C[C@H](O)C(C(=O)O)C(C2)O3)C(O)[C@H](N)C1O (some centres not stated): inactive
- CCN(Cc1ccc(Cl)s1)c1ccc(CO)c(Cl)c1: inactive
- CC(C)=CCC/C(C)=C/CC/C(C)=C/CC/C=C(\C)CC/C=C(\C)CCC(=O)Nc1ccn(C2OC(CO)C(O)C2(F)F)c(=O)n1 (configuration not stated): inactive
- COc1ccc(C(=O)N2c3ccccc3Sc3ccccc32)c(OC)c1: inactive
- Cc1cccc(NC(=O)c2sc3nc4c(cc3c2N)CN(Cc2ccccc2)CC4)c1C: active
- CN1CCC(n2cnc(-c3ccc(F)cc3)c2-c2ccnc(N)n2)CC1: inactive
- BrCc1ccc(CBr)cc1: inactive
- CN1CCN(Cc2ccc(NC(=O)c3[nH]ncc3Nc3ncnc4sc5c(c34)CCCC5)cc2)CC1: active
- O=C(Nc1cccc(Nc2ncc(Br)c(NCCc3cnc[nH]3)n2)c1)N1CCCC1: inactive
- O=[N+]([O-])c1cc(S(=O)(=O)Oc2ccccc2)ccc1Cl: inactive
- COc1ccc2c(c1)OC1=C(C(=O)OC1)C2c1cc(OC)c2c(c1)OCO2 (configuration not stated): active

###

The entries below are paired with their reported TGI.
Tested on: 786-0 renal
PROCEDURE DETAILS: NCI tumour cell line growth inhibition, 48 h
ASSAY METRIC: TGI

- O=C(Nc1cccc(Nc2ncc(Br)c(NCCc3cnc[nH]3)n2)c1)N1CCCC1: 32.6 µM
- COC(=O)c1c(O)ccc2c1C1(Cc3ccccc3C1=O)C(O)O2 (stereo unspecified): 30.2 µM
- CCOP(=O)(OCC)C(C)(CC)NC (stereo unspecified): > 100 µM
- COc1ccc(-n2cnc3c(NC(CCSC)C(=O)O)ncnc32)cc1 (stereo unspecified): > 100 µM
- COC(=O)c1nc(-c2ccccc2)oc1S(=O)(=O)n1nc(C)cc1N: 25.6 µM
- CNc1ccc(N)cc1C(=O)N1CCC[C@H]1CO: > 100 µM
- CC(=O)OCC1OC(n2c(=O)[nH]c(=O)c3sccc32)C(Br)C1OC(C)=O (stereo unspecified): > 100 µM
- CN1CCN(Cc2ccc(NC(=O)c3[nH]ncc3Nc3ncnc4sc5c(c34)CCCC5)cc2)CC1: 1.9 µM
- Cc1ccc(/C=C2\CCCC(CN3CCCCC3)C2=O)cc1 (stereo unspecified): 4.02 µM
- Nc1ccc(-c2nc3ccccc3[nH]2)c2ccccc12: > 41.4 µM
- O=[N+]([O-])c1cc(S(=O)(=O)Oc2ccccc2)ccc1Cl: 15.5 µM
- BrCc1ccc(CBr)cc1: 8.63 µM
- CC1=NN(C(=O)CSc2nc3ccc(I)cc3c(=O)n2Cc2ccccc2)C(=O)C1: > 100 µM
- CCOc1cc(NC(C)=O)ccc1C(=O)NN1C(=O)C(Cl)C1c1ccco1 (stereo unspecified): 30.8 µM
- CC(C)(C)CN1CCn2c(nc3c(N)nccc32)S1: > 100 µM
- CN(C)CCCN1c2ccccc2CCc2ccc([N+](=O)[O-])cc21: > 100 µM
- O=c1onc2c3ccccc3ncn12: > 100 µM
- Cn1cncc1CC1COC(=O)C1C(O)c1ccccc1 (stereo unspecified): > 100 µM
- O=c1[nH]cnc2c(C3NC(CO)C(O)C3O)c[nH]c12 (stereo unspecified): > 100 µM
- COc1ccc(C2[C@@H](Cl)C(=O)N2c2cc(OC)c(OC)c(OC)c2)cc1Cl (stereo partly specified): 10.1 µM
- CC(C)(CC(O)C#N)/[N+]([O-])=[N+](\[O-])C(C)(C)CC(O)C#N (stereo unspecified): 47.5 µM
- O=C(/C=C/c1csc(-c2ccccc2)n1)NCc1ccc(C(=O)NCc2ccccc2)cc1: > 100 µM
- COc1ccc(C(=O)N2c3ccccc3Sc3ccccc32)c(OC)c1: > 100 µM
- CCOc1ccc(-n2nnc3c(N)nc(N)nc32)cc1: > 100 µM
- Cc1ccc(N=Nc2c(O)c(C(=O)Nc3ccccc3)cc3ccccc23)c([N+](=O)[O-])c1: > 100 µM
- CC(C)(C)OC(=O)NCCC1CN(C(=O)c2ccccc2)c2ccccc21 (stereo unspecified): > 100 µM
- CN(C)CCC(/C=C/c1ccccc1)=N\Nc1ccc(Cl)cc1Cl: 26.1 µM
- C[C@H]1C=C2[C@@H]3CC(C)(C(=O)O)CC[C@]3(C)CC[C@]2(C)[C@]2(C)CC[C@H]3C(C)(C)[C@@H](OC(=O)c4cccc5c(=O)c6ccccc6[nH]c45)CC[C@]3(C)[C@@H]12 (stereo partly specified): > 100 µM
- COc1cc2nc(NCCCCCNC(=O)c3ccco3)nc(N)c2cc1OC: 49 µM
- C=C1CCC2[C@@H](CCC3[C@]2(C)CCC[C@]3(C)C(=O)OC)[C@@H]1CC=O (stereo partly specified): > 100 µM
- O=C1NC(=O)C(c2cccc(Cl)c2)=C1Nc1ccc(O)c(Cl)c1: > 25 µM
- Cc1ccc2nc(NC(=O)/C(Cc3nc4ccc(Cl)cc4[nH]c3=O)=N\NC(C)(C)C)sc2c1: > 100 µM
- CCCCCCN(N)C(=O)CC#N: > 100 µM
- COc1cc(C(c2ccc3c(c2)OCO3)N2C(=O)CCC2C(=O)O)cc(OC)c1OC (stereo unspecified): > 100 µM
- Cc1cc(N(CCC#N)CCC#N)ccc1/C=C1N=C(/C=C\c2ccccc2)N(c2ccc(Cl)cc2)C\1=O: > 100 µM
- O=C([CH-]C(=O)c1ccccc1)c1ccccc1.O=C([CH-]C(=O)c1ccccc1)c1ccccc1.[OH-].[OH-].[Ti+4]: > 100 µM
- CCO/C=C1\N=C(c2ccccc2Br)OC1=O: > 100 µM
- COc1cc(/C=C/[N+](=O)[O-])cc(Br)c1OC: 3.54 µM
- C[C@@H]1O[C@@H](O[C@H]2CC[C@@]3(C)[C@H](CCC4[C@@H]3C(O)C[C@]3(C)[C@@H](c5ccc(=O)oc5)CC[C@]43O)C2)[C@H](O)[C@H](O)[C@H]1O (stereo partly specified): 0.0169 µM
- CC(C)CN=C(N)N=C(N)N: > 100 µM
- CN(CCCNC(=O)c1nn(-c2ccc(Cl)cc2Cl)c2c1Cc1ccccc1-2)CCCNC(=O)c1nn(-c2ccc(Cl)cc2Cl)c2c1Cc1ccccc1-2: 3.21 µM

###

Tested on: UACC-257 melanoma
PROCEDURE DETAILS: NCI tumour cell line growth inhibition, 48 h
ASSAY METRIC: TGI

• Nc1ccccc1SCc1csc(-c2ccc(Cl)cc2)n1 = > 77.7 µM
• CNS(=O)(=O)NNS(=O)(=O)c1ccc(Cl)cc1 = > 100 µM
• FC(F)(F)c1ccc2nc(Sc3ccccn3)cnc2c1 = > 100 µM
• N#Cc1ccc(N=Cc2c([O-])ccc3ccccc23)cc1.[C-]#[O+].[C-]#[O+].[Ir] = 29 µM
• c1ccc(P(=Nc2ccccc2N=P(c2ccccc2)(c2ccccc2)c2ccccc2)(c2ccccc2)c2ccccc2)cc1 = 12.5 µM
• CNc1ccc(N)cc1C(=O)N1CCC[C@H]1CO = > 100 µM
• Cc1cc2c(c(C(=O)O)c1C)-c1cccc(F)c1C2=O = > 100 µM
• Brc1ccc(-c2cn3ccncc3n2)cc1 = 85.6 µM
• c1ccc(CSCCc2ccncc2)cc1 = > 100 µM
• Cc1cccc(NC(=O)c2sc3nc4c(cc3c2N)CN(Cc2ccccc2)CC4)c1C = > 50 µM
• Fc1cccc(C2SCc3nc4ccccc4n32)c1F (stereo unspecified) = > 100 µM

###

System: SN12C renal
PROCEDURE DETAILS: NCI tumour cell line growth inhibition, 48 h
The entries below are paired with their reported TGI.
ASSAY METRIC: TGI (µM)

- O=C(N/N=C/c1cc(Cl)cc(Cl)c1O)c1ccccc1O: 23.3
- Nc1ccccc1SCc1csc(-c2ccc(Cl)cc2)n1: 34.2
- CN(C)CCCN1c2ccccc2CCc2ccc([N+](=O)[O-])cc21: 58
- Nc1ccc(-c2nc3ccccc3[nH]2)c2ccccc12: 59.7
- CC1=CC(=O)C(O)C2(C)C1CC(O)C13COC4(C)C(OC(=O)C41)C(O)C23 (configuration not stated): 32.7
- CCN(Cc1ccc(Cl)s1)c1ccc(CO)c(Cl)c1: 22.3
